These measurements were taken from patent US20240150360A1.

# target_or_system: P300 (Homo sapiens)
# Construct: endogenous in cells; host or cells: 22Rv1 (ATCC CRL-2505) human prostate cancer cells
# Sequence (Q09472 whole entry): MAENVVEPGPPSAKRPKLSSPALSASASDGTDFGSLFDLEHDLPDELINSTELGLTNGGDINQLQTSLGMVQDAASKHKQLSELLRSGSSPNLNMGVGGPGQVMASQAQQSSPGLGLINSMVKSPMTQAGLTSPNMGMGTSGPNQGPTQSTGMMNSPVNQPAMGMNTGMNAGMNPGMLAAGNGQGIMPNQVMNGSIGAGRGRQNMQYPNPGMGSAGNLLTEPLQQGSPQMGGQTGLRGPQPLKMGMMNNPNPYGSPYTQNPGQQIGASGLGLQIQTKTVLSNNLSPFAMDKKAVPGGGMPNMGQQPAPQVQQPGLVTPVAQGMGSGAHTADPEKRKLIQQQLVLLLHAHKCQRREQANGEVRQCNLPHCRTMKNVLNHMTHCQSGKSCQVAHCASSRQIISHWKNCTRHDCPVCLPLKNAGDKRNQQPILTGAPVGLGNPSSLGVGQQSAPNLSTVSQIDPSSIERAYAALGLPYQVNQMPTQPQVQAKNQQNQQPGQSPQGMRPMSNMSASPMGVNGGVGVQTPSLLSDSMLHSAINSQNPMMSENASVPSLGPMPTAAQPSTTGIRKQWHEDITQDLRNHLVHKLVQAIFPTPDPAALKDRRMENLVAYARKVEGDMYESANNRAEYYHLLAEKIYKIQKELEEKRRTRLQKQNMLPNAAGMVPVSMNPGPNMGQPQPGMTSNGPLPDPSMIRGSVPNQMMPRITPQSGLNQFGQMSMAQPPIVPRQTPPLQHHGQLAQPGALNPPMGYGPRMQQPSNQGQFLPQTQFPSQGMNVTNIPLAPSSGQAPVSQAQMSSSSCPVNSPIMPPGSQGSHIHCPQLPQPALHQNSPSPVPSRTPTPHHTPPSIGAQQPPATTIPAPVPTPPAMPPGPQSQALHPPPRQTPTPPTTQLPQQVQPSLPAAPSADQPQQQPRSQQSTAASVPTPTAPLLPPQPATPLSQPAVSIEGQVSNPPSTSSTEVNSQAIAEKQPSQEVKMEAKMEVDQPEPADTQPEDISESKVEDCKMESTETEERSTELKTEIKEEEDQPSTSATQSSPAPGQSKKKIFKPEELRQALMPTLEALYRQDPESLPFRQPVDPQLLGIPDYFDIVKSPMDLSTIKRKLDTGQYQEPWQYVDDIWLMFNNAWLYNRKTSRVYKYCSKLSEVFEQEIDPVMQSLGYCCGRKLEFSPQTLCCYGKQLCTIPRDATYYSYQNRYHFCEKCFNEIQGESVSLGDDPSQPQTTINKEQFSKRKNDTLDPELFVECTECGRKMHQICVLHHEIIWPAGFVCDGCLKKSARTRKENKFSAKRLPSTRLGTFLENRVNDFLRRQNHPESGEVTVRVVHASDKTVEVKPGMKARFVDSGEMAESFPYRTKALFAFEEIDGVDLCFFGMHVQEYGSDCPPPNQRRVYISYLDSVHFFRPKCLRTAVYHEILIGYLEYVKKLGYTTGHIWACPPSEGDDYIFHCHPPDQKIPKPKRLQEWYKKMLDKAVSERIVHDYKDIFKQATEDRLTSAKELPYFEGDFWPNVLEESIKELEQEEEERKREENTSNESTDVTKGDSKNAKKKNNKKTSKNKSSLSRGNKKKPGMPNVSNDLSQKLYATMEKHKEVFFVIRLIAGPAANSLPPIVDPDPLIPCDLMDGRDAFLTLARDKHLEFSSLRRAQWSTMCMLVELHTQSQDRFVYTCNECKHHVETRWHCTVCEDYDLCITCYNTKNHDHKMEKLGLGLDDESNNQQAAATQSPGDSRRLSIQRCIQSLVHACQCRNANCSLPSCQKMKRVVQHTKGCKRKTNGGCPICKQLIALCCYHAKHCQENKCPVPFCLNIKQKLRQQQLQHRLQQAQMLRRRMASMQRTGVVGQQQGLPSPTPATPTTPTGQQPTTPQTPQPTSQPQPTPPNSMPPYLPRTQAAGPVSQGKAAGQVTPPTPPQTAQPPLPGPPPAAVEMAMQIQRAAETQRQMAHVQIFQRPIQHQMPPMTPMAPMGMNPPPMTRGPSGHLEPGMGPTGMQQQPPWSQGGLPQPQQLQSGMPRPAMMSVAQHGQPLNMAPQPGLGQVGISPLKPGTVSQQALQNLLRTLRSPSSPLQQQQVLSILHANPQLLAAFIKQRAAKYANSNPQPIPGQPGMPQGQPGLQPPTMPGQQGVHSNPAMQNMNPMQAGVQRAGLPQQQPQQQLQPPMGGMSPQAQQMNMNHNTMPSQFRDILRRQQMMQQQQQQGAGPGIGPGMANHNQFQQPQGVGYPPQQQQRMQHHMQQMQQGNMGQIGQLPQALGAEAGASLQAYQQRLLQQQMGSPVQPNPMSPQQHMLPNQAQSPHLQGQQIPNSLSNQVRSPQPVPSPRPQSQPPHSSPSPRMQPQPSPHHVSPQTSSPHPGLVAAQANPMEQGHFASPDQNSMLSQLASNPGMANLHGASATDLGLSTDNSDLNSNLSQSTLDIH
# assay_notes: P300 degradation in 22Rv1 cells (5 h)
# Format: cell-based
# protocol_conditions: 22Rv1 cells, 5 h; read-out: P300 Degradation (22Rv1, 5 h) DCmax
Here the recorded Dmax is given for each entry.

compound | Dmax
Cn1cc(-c2cc3c(cc2C(F)F)N(c2nn(C4CCN(C(=O)CN5Cc6cc7c(cc6C5)C(=O)N(C5CCC(=O)NC5=O)C7=O)CC4)c4c2CN(C(=O)C2CC2)CC4)CCC3)cn1 (centres unmarked) | < 50%

Supply measured Dmax of CC(=O)N1CCc2c(c(N3CCCc4cc(-c5cnn(C)c5)c(C(F)F)cc43)nn2C2CCC(N3CCc4cc5c(cc4C3)C(=O)N(C3CCC(=O)NC3=O)C5=O)CC2)C1 (centres unmarked) in your reply.
> 90%

Supply measured Dmax of CC(=O)N1CCc2c(c(N3CCCc4cc5c(cc43)CCCC5)nn2C2CCN(C(=O)CN3Cc4cc5c(cc4C3)C(=O)N(C3CCC(=O)NC3=O)C5=O)CC2)C1 (centres unmarked) in your reply.
> 90%

Supply measured Dmax of CC(=O)N1CCc2c(c(N3CCCc4cc(-c5cnn(C)c5)c(C(F)F)cc43)nn2[C@H]2CC[C@@H](CN3CCc4cc5c(cc4C3)C(=O)N(C3CCC(=O)NC3=O)C5=O)CC2)C1 (relative stereo) in your reply.
> 90%

Supply measured Dmax of CC(=O)N1CCc2c(c(N3CCCc4cc(-c5ccccc5)c(C(F)F)cc43)nn2C2CCN(C(=O)CN3Cc4cc5c(cc4C3)C(=O)N(C3CCC(=O)NC3=O)C5=O)CC2)C1 (centres unmarked) in your reply.
> 90%

* * *

# Test system: HL60
# assay_notes: Cell growth inhibition in HL60
# Assay type: cell-based
# protocol_conditions: Homo sapiens, HL-60, read-out: Cell Growth Inhibition (IC50) HL60
Here the recorded IC50 is given for each entry.

compound | target_or_system | IC50
CC(=O)N1CCc2c(c(N3CCCc4cc(-c5cnn(C)c5)c(C(F)F)cc43)nn2C2CCN(C(=O)CN3Cc4cc5c(cc4C3)C(=O)N(C3CCC(=O)NC3=O)C5=O)CC2)C1 (centres unmarked) | HL60 | < 100 nM
CC(=O)N1CCc2c(c(N3CCCc4cc(-c5cnn(C)c5)c(C(F)F)cc43)nn2[C@H]2CC[C@@H](CN3Cc4cc5c(cc4C3)C(=O)N(C3CCC(=O)NC3=O)C5=O)CC2)C1 (relative stereo) | HL60 | < 100 nM
CC(=O)N1CCc2c(c(N3CCCc4cc(-c5cnn(C)c5)c(C(F)F)cc43)nn2C[C@H]2CC[C@H](N3Cc4cc5c(cc4C3)C(=O)N(C3CCC(=O)NC3=O)C5=O)CC2)C1 (relative stereo) | HL60 | < 100 nM
CC(=O)N1CCc2c(c(N3CCCc4cc(-c5cnn(C)c5)c(C(F)F)cc43)nn2C[C@H]2CC[C@H](CN3Cc4cc5c(cc4C3)C(=O)N(C3CCC(=O)NC3=O)C5=O)CC2)C1 (some centres unmarked) | HL60 | < 1000 nM

Continue with the compound presented below.
Report IC50 under test system HL60 for CC(=O)N1CCc2c(c(N3CCCc4cc(-c5cnn(C)c5)c(C(F)F)cc43)nn2C2CCC(N3Cc4cc5c(cc4C3)C(=O)N(C3CCC(=O)NC3=O)C5=O)CC2)C1 (centres unmarked) .
< 100 nM
